- MEASURED TARGET: recombinant homotrimeric HA, A/Hong Kong/1073/99 H9N2 (Influenza A virus A/Hong Kong/1073/99 (H9N2))
- PROTOCOL TEXT: trimeric HA microarray, transfection set 3
- CONDITION: remark: other sources report otherwise
Give fulfilled when the value for Trimeric HA Binding RLU is at least 20000 RLU. Give not fulfilled when it is less.

Record excerpt, results attached:
binder="TCN-530 (5248_H10a) (antibody, V domains shown) VH: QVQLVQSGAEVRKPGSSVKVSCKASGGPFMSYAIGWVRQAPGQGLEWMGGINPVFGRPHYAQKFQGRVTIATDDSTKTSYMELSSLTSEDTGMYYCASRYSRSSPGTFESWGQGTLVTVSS VL: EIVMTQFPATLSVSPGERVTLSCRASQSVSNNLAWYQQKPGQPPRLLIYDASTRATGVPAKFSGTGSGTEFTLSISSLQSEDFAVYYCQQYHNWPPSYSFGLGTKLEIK" category="not fulfilled"
binder="TCN-532 (5262_H18) (antibody, V domains shown) VH: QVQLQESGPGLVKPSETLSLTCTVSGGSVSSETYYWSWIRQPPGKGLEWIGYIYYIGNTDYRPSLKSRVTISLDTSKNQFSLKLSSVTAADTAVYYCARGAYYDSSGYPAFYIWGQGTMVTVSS VL: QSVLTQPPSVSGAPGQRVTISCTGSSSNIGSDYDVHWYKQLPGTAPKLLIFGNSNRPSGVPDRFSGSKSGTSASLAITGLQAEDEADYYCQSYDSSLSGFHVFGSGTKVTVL" category="not fulfilled"
binder="TCN-533 (5256_A17) (antibody, V domains shown) VH: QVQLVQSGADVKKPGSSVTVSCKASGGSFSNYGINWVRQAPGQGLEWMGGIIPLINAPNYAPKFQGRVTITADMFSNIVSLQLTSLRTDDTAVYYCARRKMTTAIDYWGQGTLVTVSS VL: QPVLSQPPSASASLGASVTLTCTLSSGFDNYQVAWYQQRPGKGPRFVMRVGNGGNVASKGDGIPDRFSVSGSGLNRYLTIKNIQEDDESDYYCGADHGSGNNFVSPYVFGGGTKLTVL" category=fulfilled
binder="TCN-529 (5297_H01) (antibody, V domains shown) VH: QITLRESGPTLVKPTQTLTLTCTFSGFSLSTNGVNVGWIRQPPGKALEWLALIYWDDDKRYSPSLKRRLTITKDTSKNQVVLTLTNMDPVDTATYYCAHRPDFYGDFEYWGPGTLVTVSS VL: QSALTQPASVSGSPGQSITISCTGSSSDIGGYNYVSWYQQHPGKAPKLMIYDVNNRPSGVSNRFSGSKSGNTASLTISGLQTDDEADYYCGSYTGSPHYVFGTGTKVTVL" category="not fulfilled"

API: the following record is the query input.
Q: Exam item: decide whether the reported Trimeric HA Binding RLU for TCN-523 (5248_A17) (antibody, V domains shown) VH: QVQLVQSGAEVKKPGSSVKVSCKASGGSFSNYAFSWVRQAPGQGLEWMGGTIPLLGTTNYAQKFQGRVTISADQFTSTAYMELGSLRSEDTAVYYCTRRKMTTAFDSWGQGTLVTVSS VL: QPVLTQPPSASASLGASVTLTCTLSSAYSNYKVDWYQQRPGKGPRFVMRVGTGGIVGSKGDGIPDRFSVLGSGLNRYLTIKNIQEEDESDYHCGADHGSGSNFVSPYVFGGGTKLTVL is at least 20000 RLU.
A: fulfilled
